test system: HeLa (cervical cancer); assay: MTT cell viability assay, HeLa; format: cell-based, human; conditions: Homo sapiens, HeLa; MTT, 72 h
Parameter: IC50. Scope: all listed entries.
Write down the numeric answer in µM and omit the unit.

Entry COc1ccc(C=CC(=NN=C(N)NS(=O)(=O)c2cc(C)c(Cl)cc2SCc2ccc(C)cc2)c2ccccc2)cc1 ; IC50 = 250

Entry Cc1cc(S(=O)(=O)NC(N)=NN=C(C=Cc2ccc(O)cc2)c2ccccc2)c(SCc2ccccc2)cc1Cl ; IC50 = 15

* * *

system: HeLa (cervical cancer); assay: MTT cell viability assay, HeLa; format: cell-based, human; conditions: Homo sapiens, HeLa; MTT, 72 h
Parameter: IC50. Scope: all listed entries.
Write down the numeric answer in µM and omit the unit.

Record excerpt, results attached:
Cc1cc(S(=O)(=O)NC(N)=NN=C(C=Cc2ccc(O)cc2)c2ccccc2)c(SCc2ccccc2Cl)cc1Cl 18
Cc1cc(S(=O)(=O)NC(N)=NN=C(C=Cc2ccc(O)cc2)c2ccccc2)c(SCc2cccc(Cl)c2)cc1Cl 20

Entry Cc1cc(S(=O)(=O)NC(N)=NN=C(C=Cc2ccccc2O)c2ccccc2)c(SCc2ccccc2)cc1Cl ; IC50 = 17
